The values you see were collected from patent US20060110401A1.

Provide the reported log10(IC50) of each item.
Target: HLA-DR1 (DRB1*0101) (human)
Assay: competition binding
Settings: chains peptide; modification not given
Recorded IC50 (log10, nM)

Specify log10(IC50) for KPGIYRFVAPGERPSGMFD [27N 1495-1513] and stop.
2.21

Specify log10(IC50) for AQGYKVLVLNPSVAATLGFGAYMSKAHGID [18N 1246-1275] and stop.
0.00

Specify log10(IC50) for SSDLYLVTRHADVIPVRRRGDSRGSLL [13N 1127-1153] and stop.
2.85

Specify log10(IC50) for PQDVKFPGGGQIVGGVYLLPRRGPRLGVR [1C 19-47] and stop.
2.54

Specify log10(IC50) for IEEVALSTTGEIPFYGKAIPLEVIKG [22N 1362-1387] and stop.
1.52

Specify log10(IC50) for KNQVEGEVQIVSTAAQTFLAT [10N 1052-1072] and stop.
2.60

Specify log10(IC50) for DPNIRTGVRTITTGSPITYSTYGKFLADGG [19N 1275-1304] and stop.
2.18
